Please provide measured activation for the entries that follow.
# tested-target: Cellular tumor antigen p53 (Homo sapiens)
# experimental-details: Primary qHTS for small molecule compounds that upregulate eGFP-tagged delta133p53alpha (in N-terminal) cells. (AID 2060322);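 further: cells pre-induced with doxycycline then dosed without doxycycline; 0% = DMSO vehicle and 100% = reference activator; nearly all actives have a fitted effect of over 75% in size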
# experimental-conditions: NCI-H358 eGFP-delta133p53alpha fluorescence, 24 h; active compounds read high
Inconclusive results are not listed.
# value in %; strip the unit string

[ask] Which activation value belongs to `O=C(NCCCN1CCC2(CC1)OCc1ccccc12)[C@H]1CCCN1Cc1ccccc1` ?
[reply] 0.477

[ask] Which activation value belongs to C[C@@H]1CC[C@]2(C(=O)O[C@@H]3O[C@H](CO[C@@H]4O[C@H](CO)[C@@H](O)[C@H](O)[C@H]4O)[C@@H](O)[C@H](O)[C@H]3O)CC[C@]3(C)C(=CCC4[C@@]5(C)CC[C@H](O)[C@](C)(C(=O)O)C5CC[C@]43C)[C@@H]2[C@]1(C)O (stereo not given in full) ?
[reply] -6.11

[ask] Which activation value belongs to `CCOC(=O)Nc1ccc2c(c1)N(C(=O)CCN1CCOCC1)c1ccccc1S2` ?
[reply] 4.18

[ask] Which activation value belongs to CC(C)C1=CCC(C)(O)C(OC2OC(CO)C(O)C(O)C2O)C1 (stereo not given) ?
[reply] -17.6

[ask] Which activation value belongs to O=C1NC2CCc3nc4ccccc4c(=O)n3C2=Nc2ccccc21 (stereo not given) ?
[reply] -8.93

[ask] Which activation value belongs to `N#Cc1cc(-c2ccnc(Nc3ccc(N4CCOCC4)cc3)n2)ccc1OC1CCOCC1` ?
[reply] -18.8

[ask] Which activation value belongs to `CNC(=O)Nc1ccc(-c2nc(N3CC4CCC(C3)O4)c3cnn(C4CCC5(CC4)OCCO5)c3n2)cc1` ?
[reply] 8.27

[ask] Which activation value belongs to CC1=C(CCC(C)O[C@@H]2O[C@H](CO)[C@@H](O)[C@H](O)[C@H]2O)C(C)(C)CC(O)C1 (stereo not given in full) ?
[reply] -7.63

[ask] Which activation value belongs to `CCN(CC)CC(=O)Oc1ccc(NC(C)=O)cc1` ?
[reply] -5.08

[ask] Which activation value belongs to `CC(=O)c1ccc2c(c1)[C@H](NC(=O)c1ccc(F)c(Cl)c1)[C@H](O)C(C)(C)O2` ?
[reply] 7.16

[ask] Which activation value belongs to `C[C@H](NCc1ccc(OCc2ccccc2F)cc1)C(N)=O` ?
[reply] 11.5

[ask] Which activation value belongs to `Cc1cccc(/C=C/c2ccccc2)n1` ?
[reply] -2.77

[ask] Which activation value belongs to `CC(C)(C)[C@H](NC(=O)c1ccc(N)c(Cl)c1)C(=O)N1CCC[C@H]1C(=O)N[C@H](C#N)CC(=O)O` ?
[reply] -7

[ask] Which activation value belongs to `COc1c(C)cc(NC(=O)c2nn(Cc3ccc(F)cc3)c3c2CN(C(=O)c2ccc[nH]2)C[C@]3(C)C(N)=O)cc1C` ?
[reply] 0.333

[ask] Which activation value belongs to `OC[C@H]1O[C@@H](O[C@H]2[C@H](OCc3ccccc3)O[C@H](CO[C@@H]3OC[C@@H](O)[C@H](O)[C@H]3O)[C@@H](O)[C@@H]2O)[C@H](O)[C@@H](O)[C@@H]1O` ?
[reply] -15.2

[ask] Which activation value belongs to `CC[C@@H]([C@H](C)O)n1ncn(-c2ccc(N3CCN(c4ccc(OC[C@@H]5CO[C@@](Cn6cncn6)(c6ccc(F)cc6F)C5)cc4)CC3)cc2)c1=O` ?
[reply] 22.6

[ask] Which activation value belongs to `O=C1c2cccc(O)c2C(=O)c2c(O)cc(CO)cc21` ?
[reply] -5.26

[ask] Which activation value belongs to CC1CC(=O)C2=C(C1)C1OC1C1(O)C2C(=O)c2cccc(O)c2C1O (stereo not given) ?
[reply] 4.58

[ask] Which activation value belongs to C=C1[C@@H]2CC[C@@]3(C)[C@H](c4ccoc4)OC(=O)C[C@]13O[C@H]1CC(=O)C(C)(C)[C@H](C(O)C(=O)OC)[C@]12C (stereo not given in full) ?
[reply] 8.04

[ask] Which activation value belongs to `CN1CCN(c2ncc(-c3cc(Cl)cc(Cl)c3Cl)c(N)n2)CC1` ?
[reply] 4.6

[ask] Which activation value belongs to `CN[C@@H]1[C@@H](O)[C@@H](O[C@@H]2[C@@H](O)[C@H](O[C@H]3O[C@@H]([C@@H](C)NC)CC[C@H]3N)[C@@H](N)C[C@H]2N)OC[C@]1(C)O` ?
[reply] -8.59

[ask] Which activation value belongs to `Cc1cc(N2CCN(C(=O)Oc3ccc(-c4ccccc4)cn3)CC2)c2ccccc2n1` ?
[reply] -10.3

[ask] Which activation value belongs to `CNC(=O)[C@H]1O[C@@H](n2cnc3c(NCc4ccc(N)c(I)c4)ncnc32)[C@H](O)[C@@H]1O` ?
[reply] 4.33

[ask] Which activation value belongs to CC1(C)OC(=O)C=C[C@@]2(C)C1CC(=O)[C@]1(C)C2CC[C@@]2(C)[C@H](c3ccoc3)OC(=O)[C@H]3O[C@]321 (stereo not given in full) ?
[reply] -19.1

[ask] Which activation value belongs to Cc1nc(Nc2ccc(F)cc2)nc(N2CCc3ccccc3C2C)c1C (stereo not given) ?
[reply] 11.9

[ask] Which activation value belongs to CC1=CC(=O)CC2C1(O)CCC(C)C21CC(c2ccoc2)OC1=O (stereo not given) ?
[reply] 6.87

[ask] Which activation value belongs to C=C(C(=O)O)C1CCC(C)C2CCC(=O)OC2(C)C1 (stereo not given) ?
[reply] 18.8

[ask] Which activation value belongs to `COc1ccc2c(c1)CC[C@H]1[C@@H]2CC[C@]2(C)[C@@H](NCCCCCCN3C(=O)C=CC3=O)CC[C@H]12` ?
[reply] 38.4

[ask] Which activation value belongs to `CC[C@H](NC(=O)c1c(C)c(-c2ccccc2)nc2ccccc12)c1ccccc1` ?
[reply] -16.3

[ask] Which activation value belongs to `CCN(CC)CC(=O)OCC(=O)[C@@]1(O)CC[C@H]2[C@@H]3CCC4=CC(=O)CC[C@]4(C)[C@H]3[C@@H](O)C[C@@]21C` ?
[reply] -4.18

[ask] Which activation value belongs to CC1=CCC2C(C)(C)CCC[C@]2(C)[C@@]12CC[C@](C)(CC(=O)O)O2 (stereo not given in full) ?
[reply] 27.5

[ask] Which activation value belongs to `O=C1NC(=O)C(=Cc2ccc3nccnc3c2)S1` ?
[reply] -3.42

[ask] Which activation value belongs to CC(N)(Cc1ccc(O)cc1)C(=O)O (stereo not given) ?
[reply] -18.1

[ask] Which activation value belongs to `CNC(=O)c1cccc2cc(Oc3ccnc4cc(OCC5(N)CC5)c(OC)cc34)ccc12` ?
[reply] 12.5

[ask] Which activation value belongs to NS(=O)(=O)c1cc2c(cc1C(F)(F)F)NC(Cc1ccccc1)NS2(=O)=O (stereo not given) ?
[reply] -6.69

* * *

# tested-target: Cellular tumor antigen p53 (Homo sapiens) (UniProt P04637)
# Sequence (P04637 whole entry, looked up): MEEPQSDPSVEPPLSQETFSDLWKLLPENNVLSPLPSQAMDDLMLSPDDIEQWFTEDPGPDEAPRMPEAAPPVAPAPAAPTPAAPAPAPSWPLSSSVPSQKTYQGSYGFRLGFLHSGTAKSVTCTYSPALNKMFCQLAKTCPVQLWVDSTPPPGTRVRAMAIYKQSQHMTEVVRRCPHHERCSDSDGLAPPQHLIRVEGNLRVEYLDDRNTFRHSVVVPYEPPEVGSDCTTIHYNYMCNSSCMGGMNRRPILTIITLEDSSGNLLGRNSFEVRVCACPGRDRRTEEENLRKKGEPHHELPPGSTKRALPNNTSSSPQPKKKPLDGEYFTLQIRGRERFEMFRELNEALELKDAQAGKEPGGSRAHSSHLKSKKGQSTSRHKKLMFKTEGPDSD
# experimental-details: Primary qHTS for small molecule compounds that upregulate eGFP-tagged delta133p53alpha (in C-terminal) cells. (AID 2060324)
# experimental-conditions: NCI-H358 delta133p53alpha-eGFP (C-terminal tag), GFP fluorescence imaging, 24 h; series mostly up to 57.5 µM
Records with an inconclusive call do not appear. The source made the active and inactive calls. Calls come from the whole dose curve; as a rule, active = well fitted activation curve with a large enough effect; inconclusive = small, poorly fitted or top-dose-only effect; inactive = flat fitted curve, though single readings scatter.
Your answer must be one of the following: Y for active, N for inactive

[ask] What classification did `Nc1ncnc2c1ncn2[C@@H]1O[C@H](COP(=O)(O)CP(=O)(O)OP(=O)(O)O)[C@@H](O)[C@H]1O` end up with in this test?
[reply] N

[ask] What classification did `N=C(N)c1ccccc1` end up with in this test?
[reply] N

[ask] What classification did O=C(c1ccccc1)c1ccc2n1CCC2C(=O)O (configuration not stated) end up with in this test?
[reply] N

[ask] What classification did `O=C(O)c1cc(=O)cc(C(=O)O)[nH]1` end up with in this test?
[reply] N

[ask] What classification did `CCCCCCCC/C=C\CCCCCCCC(=O)NCCc1ccc(O)c(O)c1` end up with in this test?
[reply] N

[ask] What classification did `COCCCC/C(=N\OCCN)c1ccc(C(F)(F)F)cc1` end up with in this test?
[reply] N

[ask] What classification did `Oc1ccc(/C=C/c2ccc(/C=C/c3ccc(O)cc3)c(Br)c2)cc1` end up with in this test?
[reply] N

[ask] What classification did `Cc1scc2c1N(C(=O)CN1CCN(C)CC1)c1ccccc1NC2=O` end up with in this test?
[reply] N

[ask] What classification did NC1C=CC=C(C(=O)O)C1 (configuration not stated) end up with in this test?
[reply] N

[ask] What classification did CC1=C(C(=O)O)N2C(=O)[C@@H](NC(=O)C(N)c3ccccc3)[C@H]2SC1 (some centres not stated) end up with in this test?
[reply] N

[ask] What classification did NC1=NCC2c3ccccc3Cc3ccccc3N12 (configuration not stated) end up with in this test?
[reply] N

[ask] What classification did `O=C(CCc1ccc(O)cc1)c1c(O)cc(O)cc1O` end up with in this test?
[reply] N

[ask] What classification did `Cc1ccc(C(=O)Nc2ccc(S(=O)(=O)O)c3cc(S(=O)(=O)O)cc(S(=O)(=O)O)c23)cc1NC(=O)c1cccc(NC(=O)Nc2cccc(C(=O)Nc3cc(C(=O)Nc4ccc(S(=O)(=O)O)c5cc(S(=O)(=O)O)cc(S(=O)(=O)O)c45)ccc3C)c2)c1` end up with in this test?
[reply] N

[ask] What classification did CN1C2CCC1CC(OC(=O)c1c[nH]c3ccccc13)C2 (configuration not stated) end up with in this test?
[reply] N

[ask] What classification did CCc1c(C)[nH]c2c1C(=O)C(CN1CCOCC1)CC2 (configuration not stated) end up with in this test?
[reply] N

[ask] What classification did `Cc1cccc(C#Cc2ccccc2)n1` end up with in this test?
[reply] N

[ask] What classification did `CCCCC[C@H](CC(=O)NO)C(=O)N[C@H](C(=O)N1CCC[C@H]1CO)C(C)C` end up with in this test?
[reply] N

[ask] What classification did CC(C)(C(=O)O)c1ccc(C(O)CCCN2CCC(C(O)(c3ccccc3)c3ccccc3)CC2)cc1 (configuration not stated) end up with in this test?
[reply] N

[ask] What classification did CC(=O)SC1CC2=CC(=O)CC[C@]2(C)C2CC[C@@]3(C)C(CC[C@@]34CCC(=O)O4)C12 (some centres not stated) end up with in this test?
[reply] N

[ask] What classification did `CCN1CCC[C@H]1CNC(=O)c1c(O)c(Cl)cc(Cl)c1OC` end up with in this test?
[reply] N

[ask] What classification did `Oc1ccc2ccccc2c1SSc1c(O)ccc2ccccc12` end up with in this test?
[reply] N

[ask] What classification did `NS(=O)(=O)C#Cc1ccccc1` end up with in this test?
[reply] Y
